// data source = the supplement of paper PMC10567573

B1: RAB11B (parent)
chain: AVPTDEARAFAEKNNLSFIETSAL

variants of: B1; assay: protein stability index of a GFP-peptide fusion (GPS, HEK-293T) (PSI 1-6); higher = more stable; conditions: c terminus: a fixed tail appended;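 also: lentivirally expressed fusions sorted by FACS into six bins by GFP to DsRed ratio, PSI derived from sequencing read proportions per bin multiplied by bin number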
observable: protein stability index
Give bare numbers.

Answered cases to consult:
entry_sequence="AVTTDEARAFAEKNNLSFIETSAL [P3T]" reported_value=3.17
entry_sequence="AVPTDEARYFAEKNNLSFIETSAL [A9Y]" reported_value=2.48
entry_sequence="AVPTDEARAFAEKNNLAFIETSAL [S17A]" reported_value=2.78
entry_sequence="AVPTDEARAFAEKNNISFIETSAL [L16I]" reported_value=3.95
entry_sequence="AVPTDEARAFAEKNNLSYIETSAL [F18Y]" reported_value=2.97

List the reported protein stability index of each variant below.
1. AVPTDEARAFAEKNNLSFIETNAL [S22N]
2. AVPTVEARAFAEKNNLSFIETSAL [D5V]
3. AVPTDEARAFAEKTNLSFIETSAL [N14T]
4. AVPTDEARAFAEKNNLSWIETSAL [F18W]
5. AVPTDEARAFAEKNNLSFIETYAL [S22Y]
6. AVPTDEARAFAKKNNLSFIETSAL [E12K]

Data returned:
[3.69, 1.99, 2.88, 3.67, 1.96, 1.93]
